assay remarks: qHTS drug screen for cell cycle checkpoint inhibitors in PARPi-resistant BRCA-mutant ovarian cancer cell lines. (AID 1963452)
experimental conditions: PEO1/OlaR viability, CellTiter-Glo luminescence, 96 h; stronger effect = lower value
Calls of active or inactive are those of the source. Calls come from the whole dose curve.
property measured: Z-AUC

CN(C(=O)CNC(=O)/C=C/c1cccc(Cl)c1)C1CCS(=O)(=O)CC1 : -0.555 (inactive)
Cc1cc(Oc2ccc3nc(COc4ccc(CC5SC(=O)NC5=O)cc4)n(C)c3c2)cc(C)c1N (configuration not stated) : -0.262 (inactive)
CCC[C@H](NC(=O)/C(C#N)=C/c1cccc(Br)n1)c1ccccc1 : 0.211 (inactive)
COc1ccc(Cl)cc1-c1cc(=O)[nH]c(=S)n1CC(N)=O : 0.0644 (inactive)
CC#CC(=O)N1CC[C@@H](n2c(=O)n(-c3ccc(Oc4ccccc4)cc3)c3c(N)ncnc32)C1 : 1.04 (inactive)
CC(C)n1c(=O)cc(N[C@@H](C)c2ccccc2)[nH]c1=O : -0.0266 (inactive)

Return reported Z-AUC; argument: Cn1cc(-c2ccc(-c3cncc(Cl)c3N3CCC4(CCNC4=O)CC3)cc2)cn1
-1.1 (inactive)

Return reported Z-AUC; argument: O=c1ncccn1[C@@H]1O[C@H](CO)[C@@H](O)[C@H]1O
-0.938 (inactive)

Return reported Z-AUC; argument: CN1C[C@@H]2c3ccccc3Oc3ccc(Cl)cc3[C@H]2C1
1.28 (inactive)

Return reported Z-AUC; argument: N=C(N)c1ccc2nc(-c3cc(CC(=O)N[C@@H](CC(=O)O)C(=O)O)cc(-c4cc(S(N)(=O)=O)ccc4O)c3O)[nH]c2c1
-0.76 (inactive)

Return reported Z-AUC; argument: COc1nc(OCc2cccc(-c3ccccc3)c2C)ccc1CNCCNC(C)=O
-0.638 (inactive)

Return reported Z-AUC; argument: CC[C@H]1OC(=O)[C@H](C)C(=O)[C@H](C)[C@@H](O[C@H]2O[C@H](C)C[C@H](N(C)C)[C@H]2O)[C@](C)(OC)C[C@@H](C)C(=O)[C@H](C)[C@H]2N(CCCCn3cnc(-c4cccnc4)c3)C(=O)O[C@]12C
0.729 (inactive)

Return reported Z-AUC; argument: O=C1Cc2cc(C(=O)NC3C[C@H]4CC[C@@H](C3)N4S(=O)(=O)CC3CCN(CCCC(F)(F)F)CC3)c(Cl)cc2N1 (some centres not stated)
-0.571 (inactive)

Return reported Z-AUC; argument: CCOCOC[C@H](C[C@H](C)C(=O)NO)NC(=O)c1ccc(Oc2ccccc2)cc1
0.6 (inactive)

Return reported Z-AUC; argument: C=C1C[C@H]2C=Nc3cc(OCCCOc4cc5c(cc4OC)C(=O)N4CC(=C)C[C@H]4C=N5)c(OC)cc3C(=O)N2C1
1.4 (inactive)

Return reported Z-AUC; argument: Fc1cccc(-n2cnc3c(NCc4nc5c(F)c(F)ccc5[nH]4)nc(N4CCOCC4)nc32)c1
-1.76 (inactive)

Return reported Z-AUC; argument: C[C@H]1CN(C2COC2)CCN1c1ccc(Nc2cc(-c3ccnc(N4CCn5c(cc6c5CC(C)(C)C6)C4=O)c3CO)cn(C)c2=O)nc1
-0.103 (inactive)

----------
assay remarks: qHTS Assay for Lipid Storage Modulators (AID 1519)
experimental conditions: Drosophila S3 cells, BODIPY lipid droplet/cell ratio, laser cytometry; measured here: cell count channel max response; cells loaded with oleic acid
Records with an inconclusive call do not appear.
property measured: max response (%)
Numbers only here, please. The scale is %.

Before answering, review these 8 worked examples.
O=c1c(-c2ccccc2)nc2cnc(N3CCOCC3)nc2n1C1CC1 : 1.76
CN(C)c1ncnc2ccc(-c3ccccc3C#N)cc12 : 15.4
Cc1cnc(CNc2ncnc3ccc(-c4ccoc4)cc23)cn1 : 20.6
CN(C)Cc1ccccc1-c1cncnc1Nc1ccncc1 : 13.6
CCNc1ncc2ncc(=O)n(C3CC3)c2n1 : 13.3
Cn1c(=O)c(-c2ccc(Cl)cc2)nc2cnc(N3CCOCC3)nc21 : 10.9
O=C(c1ccco1)N1CCC2(CCCN(C(c3ccccc3)c3ccccc3)C2)CC1 : 10.3
COc1ccc(C(=O)N2CCC3(CC2)CN(C(=O)Nc2ccccc2)C3)cc1 : 8.4

Return reported max response; argument: Cc1cnc(CNc2ccnc(-c3ccccc3CN(C)C)n2)cn1
23.9

Return reported max response; argument: CN(C)C(=O)c1ccc(-c2ccc3ncnc(N4CCC(C(=O)O)CC4)c3c2)cc1
20.3

Return reported max response; argument: CS(=O)(=O)Nc1cccc(-c2cncnc2NCc2cccs2)c1
8.3

----------
target: Ubiquitin carboxyl-terminal hydrolase 2 (Homo sapiens)
assay remarks: qHTS for Inhibitors of Ubiquitin-specific Protease USP2a Using CHOP2 as the Reporter: K484 Substrate (AID 652173);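 note: cleavage of internally quenched K48 di-ubiquitin substrate measured as rising fluorescence over time; nearly all actives have a fitted effect of over 70% in size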
experimental conditions: USP2 cleavage of DiUb K48 IQF substrate, fluorescence; series mostly up to 57.5 µM
Results filed as inconclusive are left out. The source made the active and inactive calls. The call rests on the fitted dose curve; in most records, active means well fitted inhibition curve with a large enough effect; inconclusive means small, poorly fitted or top-dose-only effect; inactive means flat fitted curve, though single readings scatter.
Write down the outcome that applies. Available outcomes: active, inactive

Use these answered entries as a reference point.
Cc1ccc(S(=O)(=O)Nc2ccc(C(=O)Nc3nc(-c4ccccc4)cs3)c(Cl)c2)cc1 : active
O=S(=O)(Nc1nc(CN2CCOCC2)nc2sc3c(c12)CCC3)c1ccc2c(c1)OCCO2 : inactive
COc1cccc(NC(=O)c2cc(-c3ccc(C)c(C)c3)nc3ccccc23)c1 : active

Hey, what did the test say about Cc1ccc(S(=O)(=O)Nc2ccccc2C(=O)Nc2cccc(-c3ccccc3)c2)cc1 ?
active

Hey, what did the test say about Cc1ccc(-c2cc(C(=O)Nc3ccc(S(=O)(=O)N(C)C)cc3)c3ccccc3n2)cc1C ?
active

Hey, what did the test say about COc1cc(NS(=O)(=O)c2ccc(C)cc2)c(C(=O)Nc2nc(-c3ccccc3)cs2)cc1OC ?
active

Hey, what did the test say about Cc1ccc(NS(=O)(=O)c2cccc(C(=O)Nc3nc(-c4ccccc4)cs3)c2)cc1 ?
active

Hey, what did the test say about O=C(Nc1ccc(S(=O)(=O)Nc2nccs2)cc1)[C@@H]1CC[C@H](C(=O)c2ccccc2)C1 ?
active

Hey, what did the test say about CC1CCC(C(=O)Nc2ccc([S+](=O)([O-])Nc3nccs3)cc2)CC1 (stereo not drawn) ?
inactive

Hey, what did the test say about Cc1ccc(-c2cc(C(=O)Nc3ccc(-n4cncn4)cc3)c3ccccc3n2)cc1C ?
active

Hey, what did the test say about O=C1CC(c2ccccc2)Cc2[nH]c(=O)c(-c3nc(-c4ccc(F)cc4)cs3)cc21 (stereo not drawn) ?
active

Hey, what did the test say about O=S(=O)(Nc1nc(CN2CCOCC2)nc2sc3c(c12)CCCC3)c1ccc2ccccc2c1 ?
active

Hey, what did the test say about O=c1[nH]c(CCl)nc2sc3c(c12)CCCC3 ?
inactive

----------
target: Phospholipid hydroperoxide glutathione peroxidase GPX4 (Homo sapiens) (UniProt P36969)
Sequence (P36969 whole entry, looked up): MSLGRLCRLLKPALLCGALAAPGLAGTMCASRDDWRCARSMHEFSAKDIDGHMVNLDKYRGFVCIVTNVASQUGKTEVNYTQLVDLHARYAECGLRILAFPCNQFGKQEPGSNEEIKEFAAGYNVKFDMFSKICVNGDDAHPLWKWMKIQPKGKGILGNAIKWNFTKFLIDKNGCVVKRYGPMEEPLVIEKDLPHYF
assay remarks: Primary qHTS Assay for Inhibitors of Recombinant Selenoprotein Glutathione Peroxidase 4 (GPX4) (AID 1845192); note: nearly all actives have a fitted effect of over 65% in size; note: potency is the fitted concentration of half-maximal effect
experimental conditions: recombinant GPX4, GR-coupled NADPH fluorescence, 15 min; series mostly up to 50 µM
Inconclusive results are not listed. Activity calls are given as the source filed them. Calls follow the shape of the dose curve; as a rule, active = well fitted inhibition curve with a large enough effect; inconclusive = small, poorly fitted or top-dose-only effect; inactive = flat fitted curve, though single readings scatter.
property measured: Potency

Before answering, review these 9 worked examples.
O=C(Nc1ccccc1)Nc1ccc(-c2ccc(C(=O)[C@@H]3CCC[C@H]3C(=O)O)cc2)cc1 : 12.8 µM (active)
Nc1cccc2c1CN([C@H]1CCC(=O)NC1=O)C2=O : inactive
Cc1c[nH]c2nc(Nc3ccc(N4CCN(C)CC4)c(F)c3)nc(-c3cccc(CC#N)c3)c12 : inactive
COCCOC(=O)N1CCN(S(=O)(=O)c2cc(F)c(Oc3ccc(Cl)cc3)c(F)c2)C(C(=O)NO)C1 (stereo not given) : inactive
NS(=O)(=O)Oc1ccc2c3c(c(=O)oc2c1)CCCCC3 : 18 µM (active)
CC/C(=C(/c1ccc(O)cc1)c1ccc(OCCNC)cc1)c1ccccc1 : inactive
O=C(/C=C/c1ccc(CN(CCO)CCc2c[nH]c3ccccc23)cc1)NO : inactive
NC(=O)c1cnc2[nH]ccc2c1NC1C2CC3C[C@H]1CC(O)(C3)C2 (stereo not given in full) : inactive
COC1CCC(N2C(=O)CNc3ncc(-c4ccc(C(C)(C)O)nc4)nc32)CC1 (stereo not given) : 3.21 µM (active)

# evaluate next
Return reported Potency; argument: Nc1nc(-c2nn(Cc3ccccc3F)c3ncccc23)ncc1C1CC1
inactive

----------
assay remarks: Primary qHTS for small molecule stabilizers of the endoplasmic reticulum resident proteome: Secreted ER Calcium Modulated Protein (SERCaMP) assay (AID 1508630); note: % is set by controls: 0 for no effect and ±100 for the full control effect
experimental conditions: SH-SY5Y GLuc-SERCaMP (Gaussia luciferase released on ER calcium loss) secretion, thapsigargin, luminescence; series mostly up to 38.4 µM
Results filed as inconclusive are left out. Activity calls are given as the source filed them. Calls come from the whole dose curve; as a rule, active = well fitted inhibition curve with a large enough effect; inconclusive = small, poorly fitted or top-dose-only effect; inactive = no such curve, though single readings can be large or run the other way.
property measured: outcome

CC(=O)NCCNc1ncnc2ccc(-c3c(C)noc3C)cc12 : inactive
CC(C)NC(=O)N1CC2(CCN(S(=O)(=O)c3ccccc3)CC2)C1 : inactive
N#Cc1cccc(NC(=O)N2CC[C@@]3(CCCNC3)C2)c1 : inactive
COc1cccc(C(=O)CC2c3c(c(Br)c4c(c3OC)OCO4)CCN2C)c1 (stereo unspecified) : inactive
O=c1c(-c2ccc(F)cc2)nc2cnc(N3CCNCC3)nc2n1C1CC1 : inactive
C[C@@H]1CCC2C(C)(C)C3CC21CC[C@@]3(C)O (stereo partly specified) : inactive

# evaluate next
Return reported outcome; argument: CN1CCN(c2ncc3nc(-c4cccc(C#N)c4)c(=O)n(Cc4ccc(F)cc4)c3n2)CC1
inactive
